AC50 values by entry
molecular target: Paired box protein Pax-8 (Homo sapiens); assay: inhibitors of PAX8-driven TPO luciferase reporter, dose response, RMG-I cells, cherry-pick (AID 687027); assay type: functional, cell-based;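 note: luciferase reporter driven by Pax8 target thyroperoxidase promoter measured by SteadyGlo luminescence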
Sequence (Q06710 whole entry): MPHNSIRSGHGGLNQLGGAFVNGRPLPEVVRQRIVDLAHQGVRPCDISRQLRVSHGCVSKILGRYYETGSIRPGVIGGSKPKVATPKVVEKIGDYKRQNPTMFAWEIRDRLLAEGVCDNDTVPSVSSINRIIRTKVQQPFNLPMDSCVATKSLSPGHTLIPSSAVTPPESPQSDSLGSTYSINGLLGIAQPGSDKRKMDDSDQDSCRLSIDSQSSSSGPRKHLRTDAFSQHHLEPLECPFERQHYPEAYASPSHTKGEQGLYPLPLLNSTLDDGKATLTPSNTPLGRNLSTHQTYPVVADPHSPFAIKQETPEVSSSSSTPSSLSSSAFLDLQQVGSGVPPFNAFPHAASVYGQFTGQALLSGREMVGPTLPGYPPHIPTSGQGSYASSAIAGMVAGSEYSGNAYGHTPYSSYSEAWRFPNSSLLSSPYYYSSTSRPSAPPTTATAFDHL
Calls of active or inactive are those of the source.
recorded-endpoint: AC50

CN(C)CC(=O)N1CCCCN2[C@H](CO)[C@H](c3ccc(/C=C/c4ccccc4)cc3)[C@H]2C1
9.31 µM (active)
Fc1cccc(CN2C[C@@H]3N[C@H](C2)[C@@H]3c2ccc(-c3cccc(F)c3)cc2)c1
23.4 µM (active)
C[C@H](CO)N1C[C@H](C)[C@@H](CN(C)S(=O)(=O)c2ccc(Cl)cc2)OCCCC[C@H](C)Oc2ccc(NS(=O)(=O)c3ccc(Cl)cc3)cc2C1=O
4.34 µM (active)
C[C@@H]1CCCCO[C@@H](CN(C)C(=O)Nc2ccc(C(F)(F)F)cc2)[C@H](C)CN([C@H](C)CO)C(=O)c2cc(NS(=O)(=O)c3ccccc3)ccc2O1
6.96 µM (active)
COc1cccc(/C=N/Nc2cc(C)nc(-c3ccccc3O)n2)c1O
5.5 µM (active)
C[C@@H]1CN([C@@H](C)CO)C(=O)Cc2cc(NC(=O)C3CCCCC3)ccc2O[C@H]1CN(C)Cc1ccc(Cl)c(Cl)c1
5.39 µM (active)
Cc1ccc(S(=O)(=O)Nc2ccc3c(c2)C(=O)N([C@H](C)CO)C[C@@H](C)[C@H](CN(C)S(=O)(=O)c2ccccc2)OCCCC[C@H](C)O3)cc1
8.05 µM (active)
COc1ccc(S(=O)(=O)Nc2ccc3c(c2)CC(=O)N([C@H](C)CO)C[C@H](C)[C@@H](CN(C)Cc2ccc(C(F)(F)F)cc2)O3)cc1
19.3 µM (active)

###

// EC50 lookup, one value per entry
target: Peroxisome proliferator-activated receptor gamma/Nuclear receptor coactivator 1 (Homo sapiens, UniProt P37231); format: functional;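 note: agonist potency as compounds enhance coactivator SRC-1 recruitment to PPARgamma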
Sequence (P37231 whole entry): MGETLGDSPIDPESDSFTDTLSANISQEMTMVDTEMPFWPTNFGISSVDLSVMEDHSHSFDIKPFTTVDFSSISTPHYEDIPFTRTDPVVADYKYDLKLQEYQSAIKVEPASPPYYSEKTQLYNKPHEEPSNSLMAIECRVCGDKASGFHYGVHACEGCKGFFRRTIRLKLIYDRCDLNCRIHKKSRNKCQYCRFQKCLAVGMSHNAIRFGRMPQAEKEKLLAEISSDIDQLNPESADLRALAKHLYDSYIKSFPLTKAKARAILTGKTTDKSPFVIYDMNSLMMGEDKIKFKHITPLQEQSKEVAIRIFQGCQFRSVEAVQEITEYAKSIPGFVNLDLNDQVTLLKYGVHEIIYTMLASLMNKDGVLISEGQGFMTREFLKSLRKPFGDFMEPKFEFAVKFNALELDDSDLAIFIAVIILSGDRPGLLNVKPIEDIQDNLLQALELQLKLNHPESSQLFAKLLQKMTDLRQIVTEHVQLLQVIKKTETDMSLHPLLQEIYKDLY
Sequence (Q15788 whole entry, further chain): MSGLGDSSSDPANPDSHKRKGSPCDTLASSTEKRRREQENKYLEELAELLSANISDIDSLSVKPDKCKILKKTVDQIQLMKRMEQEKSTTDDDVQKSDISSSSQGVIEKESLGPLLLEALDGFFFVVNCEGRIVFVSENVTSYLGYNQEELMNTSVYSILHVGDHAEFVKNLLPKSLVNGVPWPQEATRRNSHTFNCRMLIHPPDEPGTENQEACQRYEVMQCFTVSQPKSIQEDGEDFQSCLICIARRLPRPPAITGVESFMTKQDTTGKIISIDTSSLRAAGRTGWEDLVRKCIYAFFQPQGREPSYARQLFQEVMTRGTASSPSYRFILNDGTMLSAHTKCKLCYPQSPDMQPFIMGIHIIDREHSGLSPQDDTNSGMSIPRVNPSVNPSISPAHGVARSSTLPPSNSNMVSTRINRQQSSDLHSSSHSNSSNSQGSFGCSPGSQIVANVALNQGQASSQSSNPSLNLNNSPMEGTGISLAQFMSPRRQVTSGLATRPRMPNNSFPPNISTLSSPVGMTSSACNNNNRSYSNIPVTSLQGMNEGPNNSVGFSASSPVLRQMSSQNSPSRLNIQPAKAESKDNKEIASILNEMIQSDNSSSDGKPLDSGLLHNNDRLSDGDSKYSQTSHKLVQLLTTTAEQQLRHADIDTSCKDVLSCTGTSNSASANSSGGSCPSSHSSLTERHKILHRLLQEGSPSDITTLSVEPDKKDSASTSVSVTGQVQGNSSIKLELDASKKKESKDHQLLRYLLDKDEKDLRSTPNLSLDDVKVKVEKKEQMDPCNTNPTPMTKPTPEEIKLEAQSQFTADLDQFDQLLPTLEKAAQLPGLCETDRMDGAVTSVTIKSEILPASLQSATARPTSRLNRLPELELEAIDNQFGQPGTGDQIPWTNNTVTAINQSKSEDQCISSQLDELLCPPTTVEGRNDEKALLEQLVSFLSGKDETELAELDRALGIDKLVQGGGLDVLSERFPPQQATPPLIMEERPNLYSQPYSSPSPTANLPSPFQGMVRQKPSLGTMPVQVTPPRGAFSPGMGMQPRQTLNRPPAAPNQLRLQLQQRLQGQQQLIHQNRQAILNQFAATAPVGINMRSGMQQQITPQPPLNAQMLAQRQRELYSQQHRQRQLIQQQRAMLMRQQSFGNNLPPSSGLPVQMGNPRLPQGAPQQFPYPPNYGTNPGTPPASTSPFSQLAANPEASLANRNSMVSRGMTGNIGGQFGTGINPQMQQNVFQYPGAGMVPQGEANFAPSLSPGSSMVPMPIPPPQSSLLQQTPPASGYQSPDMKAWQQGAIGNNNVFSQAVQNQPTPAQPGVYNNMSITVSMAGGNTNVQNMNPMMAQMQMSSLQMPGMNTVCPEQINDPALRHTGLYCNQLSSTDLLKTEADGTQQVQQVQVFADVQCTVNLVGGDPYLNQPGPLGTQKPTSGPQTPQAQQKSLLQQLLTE
Calls of active or inactive are those of the source.
recorded-endpoint: EC50

COc1ccc(Nc2nc(S(=O)(=O)c3ccc(C)cc3)c(Cl)s2)cc1
> 79.4 µM (not active)
O=C(Nc1ccc(N2CCCCC2)cc1)c1ccccc1
> 79.4 µM (not active)
COc1cc(OC)cc(-n2nnnc2SCC(=O)Nc2ccc(C(C)=O)cc2)c1
8.56 µM (active)
O=C(NCc1ccc2c(c1)OCO2)Nc1ccc2nsnc2c1
20.4 µM (not active)
COc1ccc2sc3c(O)nc4ccccc4c3c2c1
11 µM (not active)
c1ccc(-n2ncc3c2ncn2nc(-c4ccco4)nc32)cc1
> 79.4 µM (not active)

###

# reported EC50; entries follow
system: Streptococcus; assay: Group A Streptococcus viability loss, dose response, counter-screen for streptokinase expression inhibitor project, luminescence, BacTiterGlo (AID 1915); format: functional, organism-based;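 note: potency for reduction of bacterial viability or growth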
Calls of active or inactive are those of the source.
recorded-endpoint: EC50

CCOc1ccccc1C(=O)OCC(=O)Nc1nnc(-c2ccccc2)o1
14.6 µM (active)
O=C(N/N=C/c1ccccc1O)/C(O)=C\C1=NC2(CCCC2)Cc2ccccc21
11.2 µM (active)
CC(=O)c1sc(N/N=C\c2c(O)ccc3ccccc23)nc1C
7.49 µM (active)
Cc1ccc(S(=O)(=O)N2CCCCC2)cc1NC(=O)CN1C(=O)CN(C)C1=O
> 150 µM (not active)
CCCCNC(=O)c1onc(CSc2ccc(C(C)C)cc2)c1C(=O)O
> 150 µM (not active)
Cc1noc(C)c1C(=O)Nc1ccc2ccccc2c1
> 150 µM (not active)
c1ccc(-n2c3ccccc3c3ccccc32)cc1
> 150 µM (not active)
CC1=C/C(=N\NC(=S)NCCc2ccccc2)CC(C)(C)C1
> 150 µM (not active)
Cc1ccc(-c2nc3cc(NS(=O)(=O)c4ccc(C)cc4)ccc3o2)cc1
18.1 µM (active)
CCOC(=O)c1c(-c2ccc(C)o2)csc1NC(=O)COC(=O)c1ccc(NC(N)=O)cc1
68 µM (active)
CCOC(=O)c1c(C)[nH]c(C(=O)N/N=C/c2cc([N+](=O)[O-])ccc2O)c1C
2.97 µM (active)
COc1cccc(/C=N/Nc2nc(Nc3ccccc3)nc(-n3nc(C)cc3C)n2)c1O
4.15 µM (active)

###

experiment: HEp-2 cell cytotoxicity, dose response, cytotoxicity control for RSV inhibitor project, HTS (AID 2410); type: functional; details: human respiratory syncytial virus
Activity calls are given as the source filed them.
CC50: recorded values
recorded-endpoint: CC50

COc1ccc(-c2noc(CCCC(=O)NCC3CCCO3)n2)cc1 (stereo unspecified)
30.3 µM (active)
Cc1cc(C)n2cc(-c3ccc(Cl)cc3)c(C(=O)O)c2n1
38.9 µM (active)
Cn1c(=O)c2c(SCC(=O)N3CCCc4ccccc43)nc(CC(C)(C)C)nc2n(C)c1=O
> 50 µM (active)
O=C(Cc1cccc2ccccc12)Nc1ccccc1C(=O)O
28.8 µM (active)
Cc1ccc(C)c(OCC(O)CN2CCc3ccccc3C2)c1C (stereo unspecified)
46.3 µM (active)
COc1ccc(OC)c(Nc2nc(-c3cccs3)cs2)c1
26.5 µM (active)

###

target: Genome polyprotein (dengue virus type 2); experiment: Dengue-2 NS5 methyltransferase inhibitors, primary screen, biochemical, confirmation dose response (AID 588689); type: functional
Activity calls are given as the source filed them.
recorded-endpoint: IC50

O=C(O)CN1C(=O)/C(=C\c2cc(Br)ccc2OCc2ccccc2Cl)SC1=S
24.3 µM (active)
O=C(O)CN1C(=O)/C(=C\c2cc(Br)ccc2OCc2ccc(F)cc2)SC1=S
31.4 µM (active)
Oc1c(Br)cc(/C=N/n2c(S)nnc2-c2ccccc2)cc1Br
27.5 µM (active)
CCCOc1cccc(C2C(C(=O)c3cc4ccccc4o3)=C(O)C(=O)N2c2cc(C)on2)c1 (centres undefined)
32.6 µM (active)

###

Here's what we have: AC50 numbers for Cytochrome P450 2C9 (Homo sapiens, UniProt P11712).
recorded-endpoint: AC50

Cc1cc(N)ccc1NC(=O)c1ccccc1
0.0224 µM (inconclusive)
O=C(Nc1nc(-c2ccccc2)cs1)c1ccc(Br)o1
11.2 µM (inconclusive)
Cc1cccc(CNc2ncnc3ccc(-c4ccc(C(=O)N(C)C)cc4)cc23)c1
0.794 µM (inconclusive)
Fc1ccc2c(c1)C1C=CCC1C(c1cc3c(cc1Br)OCO3)N2 (stereo unspecified)
1.78 µM (inconclusive)
COc1ccc(-c2nc3cnc(OC)nc3n(Cc3cccs3)c2=O)cc1
5.01 µM (inconclusive)
C[C@@]12C=CC(=O)C=C1CC[C@@H]1C2=CC[C@]2(C)[C@@H]1CC[C@H]2C(=O)CN1CCN(c2cc(N3CCCC3)nc(N3CCCC3)n2)CC1
12.6 µM (inconclusive)
Cc1ccc(OCC(O)CNC(=O)c2ccccc2C(=O)O)cc1 (stereo unspecified)
0.00562 µM (inconclusive)
CN(Cc1ccco1)c1nc(-c2cccc(C#N)c2)nc2ccccc12
1 µM (inconclusive)
CCCn1nc2cc(C(=O)NCCc3ccc(C)cc3)ccc2c1OCC
39.8 µM (inconclusive)
CCCCNC(=O)C(=O)NC(C)CCc1ccccc1 (stereo unspecified)
17.8 µM (inconclusive)
COCc1nnc(NC(=O)CC(c2ccccc2)c2ccccc2)s1
1 µM (inconclusive)

###

biological target: 26S proteasome non-ATPase regulatory subunit 14 (Homo sapiens); experiment: inhibition of proteasome subunit RPN11 – biochemical, fluorescence polarization, uHTS hits, confirmation (AID 602368); format: functional
Sequence (O00487 whole entry): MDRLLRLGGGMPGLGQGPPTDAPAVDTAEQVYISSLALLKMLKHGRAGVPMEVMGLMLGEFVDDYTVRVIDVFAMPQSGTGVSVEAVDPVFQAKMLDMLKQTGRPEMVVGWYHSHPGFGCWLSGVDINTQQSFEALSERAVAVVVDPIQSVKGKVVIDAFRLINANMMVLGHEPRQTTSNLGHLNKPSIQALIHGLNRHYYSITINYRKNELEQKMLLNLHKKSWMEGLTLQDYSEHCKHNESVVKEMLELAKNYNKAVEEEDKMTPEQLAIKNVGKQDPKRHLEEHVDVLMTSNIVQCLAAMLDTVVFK
Calls of active or inactive are those of the source.
recorded-endpoint: IC50

CCN(CC)CCOC(=O)c1ccc(N/C=C(/C#N)c2nc(-c3ccc4c(c3)OCO4)cs2)cc1
31.4 µM (active)
COc1ccccc1-c1cc(C(=O)Nc2cc(C)nn2-c2ccccc2)no1
36 µM (active)
COC(=O)c1c(-c2cccnc2)csc1NC(=O)c1ccc2c(c1)OCO2
37.5 µM (active)
COc1cc(/C=C2\SC(c3ccc(C)cc3)=NC2=O)cc(OC)c1O
2.18 µM (active)

###

EC50 values for the molecules below.
assay: inhibitors of intracellular T. cruzi replication, confirmation, NIH3T3 host cells, beta-gal luminescence (AID 2044); assay type: functional, cell-based;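 note: intracellular parasites grown in NIH/3T3 mouse fibroblasts as host cells; luminescent beta-galactosidase reporter signal from transgenic T. cruzi replicating inside host cells; inhibitors lower the luminescence signal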
Calls of active or inactive are those of the source.
recorded-endpoint: EC50

CCOc1ccc2c(c1)C(=NNC(=O)c1ccncc1)c1cc(OCC)ccc1-2
825 nM (active)
O=C(Cc1ccc(Br)cc1)Nc1ncc([N+](=O)[O-])s1
553 nM (active)
CN(C)c1ccc(CNCCC2CCOC(C)(C)C2)cc1 (configuration not stated)
< 100 nM (active)
CCOC(=O)c1c(NC(=O)CN2C(=O)NC3(CCCCC3C)C2=O)sc(C)c1CC (configuration not stated)
2370 nM (active)
O=[N+]([O-])c1nn(-c2ccc3c(c2)OCCO3)[n+]([O-])c1Nc1ccc(Cl)cc1
131 nM (active)
CN(C)c1ccc(/C=N/N=C(N)N)cc1[N+](=O)[O-]
144 nM (active)
CN1CCN(/C=N/c2sc3c(c2C#N)CCCCC3)CC1
1010 nM (active)

Source: ChEMBL document CHEMBL1201862
